Target: LmPTR1 (Leishmania major)
Sequence (Q01782 whole entry): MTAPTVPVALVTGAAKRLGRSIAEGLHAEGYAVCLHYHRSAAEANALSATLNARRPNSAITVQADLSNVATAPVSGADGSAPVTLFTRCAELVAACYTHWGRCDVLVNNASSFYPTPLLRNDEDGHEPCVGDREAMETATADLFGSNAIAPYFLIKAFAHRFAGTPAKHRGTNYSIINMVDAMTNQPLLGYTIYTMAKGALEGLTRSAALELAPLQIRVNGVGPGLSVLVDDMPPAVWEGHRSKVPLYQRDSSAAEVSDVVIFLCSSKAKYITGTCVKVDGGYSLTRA
Experiment: LmPTR1 inhibition, Cytochrome C coupled spectrophotometric assay
Type: biochemical
Settings: recombinant protein; standard errors within ± 10%; listed as 143606
metric: IC50 (µM)
Please respond with the number in µM and leave the unit unwritten.

Quick one: IC50 of `CCCc1nc2nc(N)nc(N)c2cc1CC` ? 6.8

* * *

Biological target: TbPTR1 (Trypanosoma brucei brucei, UniProt O76290)
Sequence (O76290 1-268): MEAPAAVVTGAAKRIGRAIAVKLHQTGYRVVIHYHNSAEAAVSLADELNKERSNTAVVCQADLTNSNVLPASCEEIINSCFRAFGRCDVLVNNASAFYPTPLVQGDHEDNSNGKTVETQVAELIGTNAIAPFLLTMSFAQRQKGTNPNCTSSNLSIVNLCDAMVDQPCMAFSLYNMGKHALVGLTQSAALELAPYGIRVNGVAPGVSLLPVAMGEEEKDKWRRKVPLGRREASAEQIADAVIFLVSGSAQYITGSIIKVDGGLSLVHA
Test: TbPTR1 inhibition, Cytochrome C coupled spectrophotometric assay
Type: biochemical
Conditions: recombinant protein; standard errors within ± 10%
Entries whose IC50 is below 10 µM take Fulfilled; entries at or above 10 µM take Not fulfilled.

Here are 3 molecules together with their reported answers.
[
  {
    "molecule": "COc1ccc(C(C)N(C)c2ncc3c(N)nc(N)nc3n2)cc1F (centres unmarked)",
    "discrete label": "Fulfilled"
  },
  {
    "molecule": "CCN(Cc1nc2ccc(C(=O)N3CCN(c4ncccn4)CC3)cc2[nH]1)C1CCCc2cccnc21 (centres unmarked)",
    "discrete label": "Not fulfilled"
  },
  {
    "molecule": "Cc1cc(N(C)C)nc2ccc(Cc3cnc(N)nc3N)cc12",
    "discrete label": "Fulfilled"
  }
]

Now look at this one.
In the record for `Cc1cc(-c2ccc3ccccc3c2)nc2nc(N)nc(N)c12` , is IC50 less than 10 µM? Fulfilled

* * *

Target: TbPTR1 (Trypanosoma brucei brucei, UniProt O76290)
Assay: TbPTR1 inhibition, Cytochrome C coupled spectrophotometric assay
Assay type: biochemical
Conditions: recombinant protein; standard errors within ± 10%
Entries whose IC50 is below 10 µM take Yes; entries at or above 10 µM take No.

[
  {
    "compound": "O=C1NCCn2ccc(Nc3nc(N[C@H]4CC[C@H](O)CC4)ncc3Cl)c21",
    "measurement target": "TbPTR1 (Trypanosoma brucei brucei, UniProt O76290)",
    "discrete label": "No"
  },
  {
    "compound": "COc1ccc(Oc2ccc(C(C)N(C)c3ncc4c(N)nc(N)nc4n3)cc2)cc1 (stereo not drawn)",
    "measurement target": "TbPTR1 (Trypanosoma brucei brucei, UniProt O76290)",
    "discrete label": "Yes"
  },
  {
    "compound": "CN(Cc1cc2ccccc2s1)c1ncc2c(N)nc(N)nc2n1",
    "measurement target": "TbPTR1 (Trypanosoma brucei brucei, UniProt O76290)",
    "discrete label": "No"
  },
  {
    "compound": "COc1ccccc1-c1c(C)[nH]c2nc(N)nc(C)c12",
    "measurement target": "TbPTR1 (Trypanosoma brucei brucei, UniProt O76290)",
    "discrete label": "Yes"
  },
  {
    "compound": "N#Cc1cccc(Nc2nccc(N3CCC(NS(=O)(=O)c4cccc(C#N)c4)CC3)n2)c1",
    "measurement target": "TbPTR1 (Trypanosoma brucei brucei, UniProt O76290)",
    "discrete label": "No"
  }
]

Now look at this one.
In the record for CC(c1ccc2c(c1)CCCC2)N(C)c1ncc2c(N)nc(N)nc2n1 (stereo not drawn) , is IC50 less than 10 µM? Yes
